So I've got a bunch of compounds here, and I need their Activity values.
Organism: Bos taurus
method.summary: Displacement of [3H]Ro151788 from bovine GABA-A receptor at 10 uM

What does the data say about its Activity? Entry: O=C(OCc1cccs1)c1cnn2c1n[n+]([O-])c1ccc(-c3ccco3)cc12
> 80%

What does the data say about its Activity? Entry: COc1ccc(-c2ccc3c(c2)n2ncc(C(=O)OCc4cccs4)c2n[n+]3[O-])cc1
> 80%

What does the data say about its Activity? Entry: [O-][n+]1nc2c(-c3ccsc3)cnn2c2cc(-c3ccsc3)ccc21
> 80%

What does the data say about its Activity? Entry: O=C(c1ccco1)c1cnn2c1n[n+]([O-])c1ccc(-c3ccc[nH]3)cc12
> 80%

What does the data say about its Activity? Entry: [O-][n+]1nc2c(-c3ccsc3)cnn2c2cc(-c3cccs3)ccc21
> 80%

What does the data say about its Activity? Entry: [O-][n+]1nc2c(-c3ccsc3)cnn2c2cc(-c3ccccc3)ccc21
> 80%

What does the data say about its Activity? Entry: [O-][n+]1nc2c(I)cnn2c2cc(-c3cccs3)ccc21
> 80%

What does the data say about its Activity? Entry: [O-][n+]1nc2c(-c3ccsc3)cnn2c2cc(-c3ccco3)ccc21
> 80%

What does the data say about its Activity? Entry: O=C(c1ccco1)c1cnn2c1n[n+]([O-])c1ccc(-c3ccco3)cc12
> 80%

What does the data say about its Activity? Entry: [O-][n+]1nc2c(I)cnn2c2cc(-c3ccsc3)ccc21
> 80%

What does the data say about its Activity? Entry: COc1ccc(-c2ccc3c(c2)n2ncc(C(=O)c4ccco4)c2n[n+]3[O-])cc1
> 80%

What does the data say about its Activity? Entry: [O-][n+]1nc2c(-c3ccc[nH]3)cnn2c2cc(-c3ccsc3)ccc21
> 80%

What does the data say about its Activity? Entry: [O-][n+]1nc2c(I)cnn2c2cc(-c3ccccc3O)ccc21
> 80%

What does the data say about its Activity? Entry: COc1ccc(-c2ccc3c(c2)n2ncc(I)c2n[n+]3[O-])cc1
> 80%

What does the data say about its Activity? Entry: CC(C)(C)OC(=O)n1cccc1-c1ccc2c(c1)n1ncc(C(=O)OCc3cccs3)c1n[n+]2[O-]
> 80%

What does the data say about its Activity? Entry: [O-][n+]1nc2c(-c3ccsc3)cnn2c2cc(-c3ccc[nH]3)ccc21
> 80%

What does the data say about its Activity? Entry: COc1ccc(-c2ccc3c(c2)n2ncc(-c4ccsc4)c2n[n+]3[O-])cc1
> 80%

What does the data say about its Activity? Entry: [O-][n+]1nc2c(-c3ccco3)cnn2c2cc(-c3ccsc3)ccc21
> 80%

What does the data say about its Activity? Entry: [O-][n+]1nc2c(I)cnn2c2cc(-c3ccc[nH]3)ccc21
> 80%

What does the data say about its Activity? Entry: [O-][n+]1nc2c(I)cnn2c2cc(-c3ccncc3)ccc21
> 80%

----------
method.summary: Displacement of [3H]Ro151788 from bovine GABA-A receptor
Parameters: species or system Bos taurus
pKi: −log10 of the molar value.
Use criterion met when the recorded pKi is no lower than 7; use criterion not met when it is lower.

Reported pKi at or above 7? [O-][n+]1nc2c(I)cnn2c2cc(-c3ccco3)ccc21
criterion not met

Reported pKi at or above 7? COc1ccccc1-c1ccc2c(c1)n1ncc(I)c1n[n+]2[O-]
criterion not met

Reported pKi at or above 7? COc1ccc(-c2ccc3c(c2)n2ncc(-c4ccsc4)c2n[n+]3[O-])cc1
criterion not met

Reported pKi at or above 7? [O-][n+]1nc2c(-c3ccc[nH]3)cnn2c2cc(-c3ccsc3)ccc21
criterion met
